Where do these numbers come from? They come from ChEMBL document CHEMBL4152379.

Exercise: state measured IC50 for each of the compounds provided.
# assay.system: Transient receptor potential cation channel subfamily V member 4 (Homo sapiens)
# Sequence (Q9HBA0 whole entry): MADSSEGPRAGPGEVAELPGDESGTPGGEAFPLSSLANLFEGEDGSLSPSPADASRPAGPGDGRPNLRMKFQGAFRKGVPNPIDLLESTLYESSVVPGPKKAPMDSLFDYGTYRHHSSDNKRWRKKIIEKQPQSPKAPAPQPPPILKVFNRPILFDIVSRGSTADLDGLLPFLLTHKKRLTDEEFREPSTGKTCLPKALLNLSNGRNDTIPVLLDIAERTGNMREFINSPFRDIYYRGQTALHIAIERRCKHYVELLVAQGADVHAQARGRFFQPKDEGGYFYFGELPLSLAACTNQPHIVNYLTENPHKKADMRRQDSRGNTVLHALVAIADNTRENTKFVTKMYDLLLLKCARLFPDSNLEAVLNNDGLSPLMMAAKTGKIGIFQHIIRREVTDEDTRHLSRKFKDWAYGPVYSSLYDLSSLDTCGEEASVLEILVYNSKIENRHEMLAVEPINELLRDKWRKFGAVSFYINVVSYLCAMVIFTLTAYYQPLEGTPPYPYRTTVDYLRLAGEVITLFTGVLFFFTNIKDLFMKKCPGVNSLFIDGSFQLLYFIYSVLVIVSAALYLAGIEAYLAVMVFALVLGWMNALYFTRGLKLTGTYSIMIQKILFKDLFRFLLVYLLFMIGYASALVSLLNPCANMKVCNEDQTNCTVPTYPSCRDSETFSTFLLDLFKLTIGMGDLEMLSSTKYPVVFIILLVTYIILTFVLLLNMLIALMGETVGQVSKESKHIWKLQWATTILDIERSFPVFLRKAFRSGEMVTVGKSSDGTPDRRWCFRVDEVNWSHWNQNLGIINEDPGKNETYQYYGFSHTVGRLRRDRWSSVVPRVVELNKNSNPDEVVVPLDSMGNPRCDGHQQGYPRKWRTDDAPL
# experiment.description: Antagonist activity at human TRPV4 expressed in BHK/AC9 or HEK MSR2 cells assessed as inhibition of GSK634775-induced Ca2+ flux pre-incubated for 10 mins before agonist addition by FLIPR assay

Here are 2 compounds together with their reported answers.
compound | IC50
N#Cc1ccc(O[C@H]2CN(S(=O)(=O)c3ccc(C(F)(F)F)cc3C#N)C[C@@]2(O)CO)cc1F | 1 nM
N#Cc1ccc(OCC2(O)CCN(S(=O)(=O)c3ccc(Cl)cc3Cl)CC2)cc1F | 130 nM

Lab note: next compound to report on.
Consider N#Cc1ccc(OC[C@@H]2CN(S(=O)(=O)c3ccc(Cl)cc3Cl)C[C@H]2O)cc1F (racemic) . Its measured IC50 is 1000 nM
